Attribution: PubChem BioAssay AID1745844

tested on: rodent lifetime carcinogenesis bioassay, tumor incidence TD50; experiment: carcinogenic potency in animals, long-term in vivo studies, CPDB compilation (AID 1745844); conditions: mouse; strain B6C3F1; males; inhaled; site: all sites + forestomach + Harderian gland + heart + kidney + liver + lung + preputial gland; lesion: histiocytic sarcoma + malignant lymphoma, mixed type + malignant lymphoma, lymphocytic type + malignant lymphoma + squamous-cell; dosed 52 weeks; study length 104 weeks
assayEndpoint: TD50 (mg/kg/day)
Numbers only, in mg/kg/day.

Looking up `C=CC=C` , I see its TD50 listed as 6.12

====

tested on: rodent lifetime carcinogenesis bioassay, tumor incidence TD50; experiment: carcinogenic potency in animals, long-term in vivo studies, CPDB compilation (AID 1745844); settings: rat; strain Sprague-Dawley; both sexes; in drinking water; site: liver; lesion: several types; types named in the paper; dosed 104 weeks; study length 104 weeks
assayEndpoint: TD50 (mg/kg/day)
Give bare numbers, in mg/kg/day.

The recorded TD50 with rodent lifetime carcinogenesis bioassay, tumor incidence TD50 for `C[C@H]1CCCCN1N=O` was 49.4
